// data source = patent US11999742B2

Tested on: Microfilaria of Dirofilaria immitis
Experiment: Motility of Dirofilaria immitis microfilariae in microtiter plate, 3 days, dose response
Format: cell-based
Conditions: 72 h, read-out: EC50, motility of D. immitis microfilaria, three days at 37° C., 5% CO2, vs DMSO control
Collected EC50 values appear next to each entry.

Below: 3 compounds and their reported EC50.
INSERT INTO results (compound, data_value) VALUES
  ('Cc1cc2c(C(C)(C)C)c(C(=O)N[C@H]3CCc4cnccc43)cnn2c1-c1cc(F)cc(Cl)c1Cl', '1000 to 10000 nM'),
  ('Cc1cc2c(N3CCOCC3)c(C(=O)N[C@H]3CCOc4ccccc43)cnn2c1-c1cc(F)cc(F)c1F', '< 10 nM'),
  ('O=C(N[C@H]1CCOc2ccccc21)c1cnn2c(-c3cc(F)cc(Cl)c3Cl)c(Cl)cc2c1N1CCC1', '< 10 nM');

# input Name the reported EC50 value associated with the compound CN(C)c1c(C(=O)N[C@H]2CCOc3ccccc32)cnn2c(-c3cc(F)cc(Cl)c3Cl)c(Cl)cc12
# output 10 to 100 nM

# input Same question for CC(C)(C)c1c(C(=O)N[C@H]2CCOc3ccccc32)cnn2c(-c3cc(Cl)cc(Cl)c3)c(Cl)cc12 please.
# output < 10 nM

# input Same question for CC(C)(C)c1c(C(=O)N[C@H]2CCOc3ccccc32)cnn2c(-c3cc(F)cc(Cl)c3Cl)c(Cl)cc12 please.
# output < 10 nM

# input Same question for CC(C)c1c(C(=O)N[C@H]2CCOc3ccccc32)cnn2c(-c3cc(Cl)cc(Cl)c3)c(Cl)cc12 please.
# output < 10 nM

----------
Collected EC50 values appear next to each entry.
System: Microfilaria of Dirofilaria immitis
Test: Motility of Dirofilaria immitis microfilariae in microtiter plate, 3 days, dose response
Assay type: cell-based
Details: 72 h, read-out: EC50, motility of D. immitis microfilaria, three days at 37° C., 5% CO2, vs DMSO control

Below: 3 compounds and their reported EC50.
INSERT INTO results (smiles_string, data_value) VALUES
  ('Cc1cc2c(C(C)(C)C)c(C(=O)N[C@H]3CCOc4ccccc43)cnn2c1-c1c(F)cc(F)cc1F', '10 to 100 nM'),
  ('Cc1cc2c(C(C)(C)C)c(C(=O)N[C@H]3CCOc4ccccc43)cnn2c1-c1cc(F)cc(Cl)c1Cl', '10 to 100 nM'),
  ('Cc1cc2c(N3CC(C)(F)C3)c(C(=O)N[C@H]3CCOc4ccccc43)cnn2c1-c1cc(Cl)cc(Cl)c1Cl', '1000 to 10000 nM');

# input Name the reported EC50 value associated with the compound Cc1cc2c(C(C)(C)C)c(C(=O)N[C@H]3CCOc4ccccc43)cnn2c1-c1c(Cl)cc(F)cc1Cl
# output 10 to 100 nM

----------
Collected EC50 values appear next to each entry.
System: Microfilaria of Dirofilaria immitis
Test: Motility of Dirofilaria immitis microfilariae in microtiter plate, 3 days, dose response
Type: cell-based
Details: 72 h, read-out: EC50, motility of D. immitis microfilaria, three days at 37° C., 5% CO2, vs DMSO control

INSERT INTO assay_data (smiles_string, target_or_test_system, data_value) VALUES
  ('Cc1cc2c(N3CC(F)(F)C3)c(C(=O)N[C@H]3CCOc4ccccc43)cnn2c1-c1cc(Cl)cc(Cl)c1Cl', 'Microfilaria of Dirofilaria immitis', '< 10 nM'),
  ('Cc1cc2c(C(C)(C)C)c(C(=O)N[C@H]3CCOc4ccccc43)cnn2c1-c1cc(Cl)cc(Cl)c1Cl', 'Microfilaria of Dirofilaria immitis', '< 10 nM'),
  ('Cc1cc2c(C(C)C)c(C(=O)N[C@H]3CCOc4ccccc43)cnn2c1-c1cc(F)cc(F)c1F', 'Microfilaria of Dirofilaria immitis', '< 10 nM');

# input Give the reported EC50 for Cc1cc2c(C(C)C)c(C(=O)N[C@H]3CCOc4ccccc43)cnn2c1-c1cc(Cl)cc(Cl)c1 (system: Microfilaria of Dirofilaria immitis).
# output 100 to 1000 nM

# input Same question for CC(C)(C)c1c(C(=O)NN2CCOc3ccccc32)cnn2c(-c3cc(F)cc(Cl)c3Cl)c(Cl)cc12 please.
# output 10 to 100 nM

# input Same question for Cc1cc2c(C(C)(C)C)c(C(=O)NN3CCOc4ccccc43)cnn2c1-c1cc(Cl)cc(Cl)c1 please.
# output 1000 to 10000 nM

# input Same question for O=C(N[C@H]1CCOc2ccccc21)c1cnn2c(-c3cc(F)cc(Cl)c3Cl)c(Cl)cc2c1N1CC(F)(F)C1 please.
# output < 10 nM
